- experimental.target: SHP2-C SH2;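 note: peptide library displayed on the E. coli surface as eCPX fusions, selected cells deep-sequenced, score is each peptide's frequency after selection divided by its frequency in the input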
- assay.explanation: SH2 binding enrichment of the phosphorylated peptide, bacterial display (enrichment ratio); higher = better substrate or ligand; peptides without Tyr show the background
Please respond with reported SH2 binding enrichment for every item in the list.
Output spec: single numeric token, no unit.

Task item: Provide one value: measured SH2 binding enrichment of NHFKICNLCAE [PTEN_Y68_Y68C_YF]
Reply: 1.4

Task item: Provide one value: measured SH2 binding enrichment of QPGTDYKIYLY [FN1_Y1970]
Reply: 0.753

Task item: Provide one value: measured SH2 binding enrichment of VRFMADTDETF [F8_Y450_Y450D]
Reply: 0.542

Task item: Provide one value: measured SH2 binding enrichment of HRNGMYGLHQD [SGSH_Y89_Q85R]
Reply: 0.751

Task item: Provide one value: measured SH2 binding enrichment of EARRVYGDIIY [ALDH5A1_Y175_H180Y]
Reply: 0.604

Task item: Provide one value: measured SH2 binding enrichment of ARLDEYIAIAK [RCOR3_Y46_K42R]
Reply: 0.702

Task item: Provide one value: measured SH2 binding enrichment of YIGVTYKNKED [PDGFRA_Y993_E996K]
Reply: 1.39
